Data provenance: paper PMC12102759

B1: PEX5 peptide 238-253 (Peroxisomal targeting signal 1 receptor), 16-mer library wild type / PEX14 Pex14 (PEX14 PEX14, residues 16-84) (parent)
chain 1: AQAEQWAAEFIQQQGT
chain 2: TPGSENVLPREPLIATAVKFLQNSRVRQSPLATRRAFLKKKGLTDEEIDMAFQQSGTAADEPSSLGPAT

- Variants of: B1
- method_description: proteomic peptide phage display deep mutational scan (ProP-PD DMS): M13 P8 16-mer library selected against immobilised GST-tagged bait for four days (rounds), NGS of the eluted pools per day and pseudo-replica
- condition_context: with PEX14 Pex14 (PEX14 PEX14, residues 16-84); bait immobilised on MaxiSorp plates (10 µg), library pre-cleared on GST, 2 h binding at 4 °C, five washes; one round per day, days 1-4; value from days 2 and 3; keep out of graded; scale: average fractional NGS count over selection days 2 and 3
API: label(entry) gives 1 if the entry's screen value is strictly smaller than 0.0003; on equality or larger values it gives 0.

| variant_label | class_label |
| --- | --- |
| chain 1 F10W | 0 |
| chain 1 A8L | 0 |
| chain 1 I11F | 0 |
| chain 1 I11K | 1 |
| chain 1 I11H | 0 |
| chain 1 G15S | 1 |
| chain 1 Q12S | 0 |
| chain 1 Q12E | 1 |
| chain 1 Q14D | 1 |
| chain 1 T16L | 0 |
| chain 1 Q14F | 1 |
| chain 1 Q2A | 1 |
| chain 1 Q14W | 0 |
| chain 1 T16P | 0 |
| chain 1 A3N | 0 |
| chain 1 Q12F | 1 |
| chain 1 Q5S | 1 |
| chain 1 F10I | 1 |
| chain 1 F10Q | 0 |
| chain 1 A7Y | 0 |
| chain 1 Q12V | 1 |
| chain 1 T16W | 1 |
